- assay_notes: self-splicing fitness, log relative to wild type (ln ratio); higher = more splicing; Tetrahymena group I intron in knt gene, E. coli kanamycin selection, DiMSum; sequences stand for … in CUCUCU…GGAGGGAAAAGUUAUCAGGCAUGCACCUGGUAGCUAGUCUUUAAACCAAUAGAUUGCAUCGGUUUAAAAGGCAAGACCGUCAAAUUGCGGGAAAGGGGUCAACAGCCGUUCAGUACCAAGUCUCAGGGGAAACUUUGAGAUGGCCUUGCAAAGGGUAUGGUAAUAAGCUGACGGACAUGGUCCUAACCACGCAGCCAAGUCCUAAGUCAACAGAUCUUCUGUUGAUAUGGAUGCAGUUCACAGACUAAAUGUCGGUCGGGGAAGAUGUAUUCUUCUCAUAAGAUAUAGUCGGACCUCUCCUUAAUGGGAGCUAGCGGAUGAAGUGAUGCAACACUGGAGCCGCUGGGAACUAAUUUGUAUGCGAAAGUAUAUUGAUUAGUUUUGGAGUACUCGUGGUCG;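 also: selection with 25 µg/mL kanamycin versus none on LB agar overnight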
- test_context: 30 °C
assay_readout: self-splicing fitness (ln)

Q) Item UCCCAGCAAUAUUACGUCAA has what recorded self-splicing fitness (ln)?
A) -2.71

Q) Item ACCCAGCAAUAUUACGGGAG has what recorded self-splicing fitness (ln)?
A) -1.23

Q) Item UAGUAGCAAUAUUACGGUGU has what recorded self-splicing fitness (ln)?
A) -3.57

Q) Item CGUGAGCAAUAUUACGACGA has what recorded self-splicing fitness (ln)?
A) -1.92

Q) Item UCUAAGCAAUAUUACGGUAA has what recorded self-splicing fitness (ln)?
A) -3.48

Q) Item UUAGAGCAAUAUUACGCGUU has what recorded self-splicing fitness (ln)?
A) -2.85

* * *

Would you mind telling me the reported self-splicing fitness (ln) of each entry?
- assay_notes: self-splicing fitness, log relative to wild type (ln ratio); higher = more splicing; Tetrahymena group I intron in knt gene, E. coli kanamycin selection, DiMSum; sequences stand for … in CUCUCU…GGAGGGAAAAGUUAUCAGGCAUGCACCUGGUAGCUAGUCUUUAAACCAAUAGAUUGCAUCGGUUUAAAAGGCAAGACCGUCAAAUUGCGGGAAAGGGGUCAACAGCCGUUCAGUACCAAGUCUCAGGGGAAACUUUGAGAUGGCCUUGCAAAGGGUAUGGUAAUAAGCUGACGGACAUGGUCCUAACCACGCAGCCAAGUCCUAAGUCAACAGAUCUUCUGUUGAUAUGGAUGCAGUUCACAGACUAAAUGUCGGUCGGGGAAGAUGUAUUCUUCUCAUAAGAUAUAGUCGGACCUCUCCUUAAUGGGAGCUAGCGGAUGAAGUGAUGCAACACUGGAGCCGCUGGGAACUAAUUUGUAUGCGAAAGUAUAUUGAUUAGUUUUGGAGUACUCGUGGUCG
- test_context: 37 °C
I'd appreciate a reply containing only the number, no unit.

Q) Item GCCUAGCAAUAUUACGAUUA has what recorded self-splicing fitness (ln)?
A) -1.63

Q) Item GAUGAGCAAUAUUACGUUAG has what recorded self-splicing fitness (ln)?
A) -1.81

Q) Item AACAAGCAAUAUUACGUCGU has what recorded self-splicing fitness (ln)?
A) -0.677

Q) Item UCUCAGCAAUAUUACGUACA has what recorded self-splicing fitness (ln)?
A) -0.374

Q) Item GCUAAGCAAUAUUACGCUUC has what recorded self-splicing fitness (ln)?
A) -2.56

Q) Item AGGAAGCAAUAUUACGGGAU has what recorded self-splicing fitness (ln)?
A) -2.06

Q) Item AAGGAGCAAUAUUACGUUUC has what recorded self-splicing fitness (ln)?
A) -2.26

Q) Item CGCUAGCAAUAUUACGCAGC has what recorded self-splicing fitness (ln)?
A) -2.8

Q) Item GAGAAGCAAUAUUACGCGUG has what recorded self-splicing fitness (ln)?
A) -0.803

Q) Item GUUCAGCAAUAUUACGUAAC has what recorded self-splicing fitness (ln)?
A) -0.994

Q) Item GUAAAGCAAUAUUACGAACA has what recorded self-splicing fitness (ln)?
A) 0.323

Q) Item GCUCAGCAAUAUUACGAUAC has what recorded self-splicing fitness (ln)?
A) -0.697

Q) Item UUUGAGCAAUAUUACGGUGU has what recorded self-splicing fitness (ln)?
A) -2.7

Q) Item GUCGAGCAAUAUUACGGUCG has what recorded self-splicing fitness (ln)?
A) -1.94

Q) Item GGUAAGCAAUAUUACGUAGU has what recorded self-splicing fitness (ln)?
A) -1.46

* * *

- assay_notes: self-splicing fitness, log relative to wild type (ln ratio); higher = more splicing; Tetrahymena group I intron in knt gene, E. coli kanamycin selection, DiMSum; sequences stand for … in CUCUCU…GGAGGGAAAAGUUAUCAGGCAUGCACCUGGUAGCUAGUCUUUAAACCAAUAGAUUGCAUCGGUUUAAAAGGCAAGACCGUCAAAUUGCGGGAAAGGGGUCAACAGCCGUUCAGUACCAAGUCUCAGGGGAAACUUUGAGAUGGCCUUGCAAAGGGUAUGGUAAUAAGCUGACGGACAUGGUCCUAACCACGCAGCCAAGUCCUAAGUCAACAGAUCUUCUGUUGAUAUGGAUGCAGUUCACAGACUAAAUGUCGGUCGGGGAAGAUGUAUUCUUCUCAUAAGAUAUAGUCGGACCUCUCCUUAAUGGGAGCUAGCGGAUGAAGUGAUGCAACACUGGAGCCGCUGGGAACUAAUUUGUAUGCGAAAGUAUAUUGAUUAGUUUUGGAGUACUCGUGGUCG
- test_context: 30 °C
assay_readout: self-splicing fitness (ln)
I'd appreciate a reply containing only the number, no unit.

Q) Item GACGAGCAAUAUUACGAGCU has what recorded self-splicing fitness (ln)?
A) -3.27

Q) Item GCCCAGCAAUAUUACGAUUC has what recorded self-splicing fitness (ln)?
A) -1.56

Q) Item CUGGAGCAAUAUUACGAAAG has what recorded self-splicing fitness (ln)?
A) -3.51

Q) Item AGUAAGCAAUAUUACGCAUC has what recorded self-splicing fitness (ln)?
A) -4.12

Q) Item CGCCAGCAAUAUUACGGAUG has what recorded self-splicing fitness (ln)?
A) -2.64

Q) Item GGUCAGCAAUAUUACGGUUA has what recorded self-splicing fitness (ln)?
A) -0.399

Q) Item CCUAAGCAAUAUUACGUAGA has what recorded self-splicing fitness (ln)?
A) -1.33

Q) Item GGUGAGCAAUAUUACGCGGC has what recorded self-splicing fitness (ln)?
A) -2.2

Q) Item GGAGAGCAAUAUUACGUGGU has what recorded self-splicing fitness (ln)?
A) -3.28

Q) Item CCGAAGCAAUAUUACGGAAU has what recorded self-splicing fitness (ln)?
A) -3.74

* * *

- assay_notes: self-splicing fitness, log relative to wild type (ln ratio); higher = more splicing; Tetrahymena group I intron in knt gene, E. coli kanamycin selection, DiMSum; sequences stand for … in CUCUCU…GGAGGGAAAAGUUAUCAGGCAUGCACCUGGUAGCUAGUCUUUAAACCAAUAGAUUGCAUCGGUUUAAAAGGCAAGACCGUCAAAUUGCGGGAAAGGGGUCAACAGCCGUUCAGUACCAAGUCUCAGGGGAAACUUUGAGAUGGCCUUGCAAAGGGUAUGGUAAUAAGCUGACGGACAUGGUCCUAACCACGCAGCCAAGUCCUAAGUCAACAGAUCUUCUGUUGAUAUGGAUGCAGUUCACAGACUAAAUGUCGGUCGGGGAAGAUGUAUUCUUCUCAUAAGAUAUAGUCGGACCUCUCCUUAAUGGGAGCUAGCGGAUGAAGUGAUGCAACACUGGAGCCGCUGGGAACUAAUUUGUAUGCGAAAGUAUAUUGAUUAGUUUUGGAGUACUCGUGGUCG
- test_context: 37 °C
Cut-off -2 on self-splicing fitness (ln), inclusive. At or above means y; below means n.

Q) Is the recorded value of self-splicing fitness (ln) equal to or greater than -2 for this sequence? CCGCAGCAAUAUUACGGAAA
A) n

Q) Is the recorded value of self-splicing fitness (ln) equal to or greater than -2 for this sequence? CAGGAGCAAUAUUACGUCCA
A) y

Q) Is the recorded value of self-splicing fitness (ln) equal to or greater than -2 for this sequence? AUUGAGCAAUAUUACGUCGC
A) y

Q) Is the recorded value of self-splicing fitness (ln) equal to or greater than -2 for this sequence? CAAAAGCAAUAUUACGUUAU
A) n

Q) Is the recorded value of self-splicing fitness (ln) equal to or greater than -2 for this sequence? GUACAGCAAUAUUACGCUGC
A) n

Q) Is the recorded value of self-splicing fitness (ln) equal to or greater than -2 for this sequence? GAGCAGCAAUAUUACGCCUA
A) y

Q) Is the recorded value of self-splicing fitness (ln) equal to or greater than -2 for this sequence? CACAAGCAAUAUUACGCGUC
A) n

Q) Is the recorded value of self-splicing fitness (ln) equal to or greater than -2 for this sequence? UCUAAGCAAUAUUACGAUGC
A) n

Q) Is the recorded value of self-splicing fitness (ln) equal to or greater than -2 for this sequence? GCGGAGCAAUAUUACGUUAA
A) n

Q) Is the recorded value of self-splicing fitness (ln) equal to or greater than -2 for this sequence? UACCAGCAAUAUUACGCUAU
A) y

Q) Is the recorded value of self-splicing fitness (ln) equal to or greater than -2 for this sequence? CCACAGCAAUAUUACGUCCA
A) y

Q) Is the recorded value of self-splicing fitness (ln) equal to or greater than -2 for this sequence? GGGAAGCAAUAUUACGCUUA
A) y

Q) Is the recorded value of self-splicing fitness (ln) equal to or greater than -2 for this sequence? AUAGAGCAAUAUUACGUCUA
A) y

Q) Is the recorded value of self-splicing fitness (ln) equal to or greater than -2 for this sequence? CGUCAGCAAUAUUACGGGAC
A) y

Q) Is the recorded value of self-splicing fitness (ln) equal to or greater than -2 for this sequence? CUCCAGCAAUAUUACGGUGA
A) y

Q) Is the recorded value of self-splicing fitness (ln) equal to or greater than -2 for this sequence? GCUGAGCAAUAUUACGUCGG
A) y

Q) Is the recorded value of self-splicing fitness (ln) equal to or greater than -2 for this sequence? GCGCAGCAAUAUUACGAUGG
A) y

Q) Is the recorded value of self-splicing fitness (ln) equal to or greater than -2 for this sequence? GGCUAGCAAUAUUACGUCGG
A) n

Q) Is the recorded value of self-splicing fitness (ln) equal to or greater than -2 for this sequence? UUACAGCAAUAUUACGUCAA
A) y

Q) Is the recorded value of self-splicing fitness (ln) equal to or greater than -2 for this sequence? UUGCAGCAAUAUUACGGGAC
A) n

Q) Is the recorded value of self-splicing fitness (ln) equal to or greater than -2 for this sequence? AGUGAGCAAUAUUACGCGCA
A) n

Q) Is the recorded value of self-splicing fitness (ln) equal to or greater than -2 for this sequence? AAACAGCAAUAUUACGUGUU
A) n

Q) Is the recorded value of self-splicing fitness (ln) equal to or greater than -2 for this sequence? CUAGAGCAAUAUUACGGUAA
A) y

Q) Is the recorded value of self-splicing fitness (ln) equal to or greater than -2 for this sequence? GACCAGCAAUAUUACGACCC
A) y

Q) Is the recorded value of self-splicing fitness (ln) equal to or greater than -2 for this sequence? CUCAAGCAAUAUUACGCCUU
A) n

Q) Is the recorded value of self-splicing fitness (ln) equal to or greater than -2 for this sequence? UUUGAGCAAUAUUACGUCGA
A) y

Q) Is the recorded value of self-splicing fitness (ln) equal to or greater than -2 for this sequence? GAGUAGCAAUAUUACGAUCG
A) y

Q) Is the recorded value of self-splicing fitness (ln) equal to or greater than -2 for this sequence? AUUUAGCAAUAUUACGAUCA
A) y

Q) Is the recorded value of self-splicing fitness (ln) equal to or greater than -2 for this sequence? GGCAAGCAAUAUUACGACGU
A) y

Q) Is the recorded value of self-splicing fitness (ln) equal to or greater than -2 for this sequence? CCUAAGCAAUAUUACGUAGC
A) n

Q) Is the recorded value of self-splicing fitness (ln) equal to or greater than -2 for this sequence? AAUGAGCAAUAUUACGGAGA
A) n

Q) Is the recorded value of self-splicing fitness (ln) equal to or greater than -2 for this sequence? GACUAGCAAUAUUACGUCAG
A) n

Q) Is the recorded value of self-splicing fitness (ln) equal to or greater than -2 for this sequence? GACGAGCAAUAUUACGAUUC
A) y

Q) Is the recorded value of self-splicing fitness (ln) equal to or greater than -2 for this sequence? UUAAAGCAAUAUUACGAGUU
A) y

Q) Is the recorded value of self-splicing fitness (ln) equal to or greater than -2 for this sequence? UUGGAGCAAUAUUACGGUCU
A) n

Q) Is the recorded value of self-splicing fitness (ln) equal to or greater than -2 for this sequence? UAAGAGCAAUAUUACGCGAA
A) y

Q) Is the recorded value of self-splicing fitness (ln) equal to or greater than -2 for this sequence? CCGGAGCAAUAUUACGUCAU
A) n

The values you see were collected from the supplement of paper PMC7877785.
